# Tested on: A549 NSCLC
# assay summary: NCI tumour cell line growth inhibition, 48 h
Catalogue of TGI values
reported metric: TGI

1. O=C(O)c1c(Br)c(Br)c(Br)c(Br)c1C1c2ccc(O)cc2Oc2cc(O)ccc21 ... > 100 µM
2. CCN1CCC(CNC(=O)c2ccc(N)cc2)N1CC (stereo not drawn) ... > 100 µM
3. CC1OC(OC2C(O[C@H]3CC[C@@]4(C)C(=CC[C@H]5[C@@H]6C[C@@H]7O[C@]8(CC[C@@H](C)CO8)[C@@H](C)[C@@H]7[C@@]6(C)CC[C@@H]54)C3)OC(CO)C(O)C2O)C(O)C(O)C1O (stereo partly drawn) ... 1.76 µM
4. CC1(C)COC2=C(C1)C(=O)c1ccccc1C2=O ... 4.76 µM
5. C=C=CC(NC(=O)c1ccccc1)(C(=O)O)C(F)(F)F (stereo not drawn) ... > 100 µM
6. CCCCNc1ccc(Nc2ccccc2)cc1 ... 52.9 µM
7. O=C1C(c2c(O)[nH]c3ccc(Br)cc23)=Nc2ccc(Br)cc21 ... > 100 µM
8. C/C(=N\Nc1nc2ccccc2s1)c1cc2ccccc2cn1 ... > 100 µM

----------
# Test system: SNB-75 CNS
# assay summary: NCI tumour cell line growth inhibition, 48 h
Catalogue of TGI values
reported metric: TGI

1. NC(=O)c1sc(-n2cnc3cc(C(F)(F)F)ccc32)cc1OCc1ccccc1Br ... > 18.8 µM
2. Brc1cccc(C2ON=C(c3ccccc3)N2C23CC4CC(CC(C4)C2)C3)c1 (centres undefined) ... > 10 µM
3. COC(=O)[C@H](Cc1cn(C)cn1)NC(=O)[C@H](C)NC(=O)Nc1cc(C(F)(F)F)cc(C(F)(F)F)c1 ... > 10 µM
4. c1ccc2c(c1)cc1n2CCc2c-1[nH]c1ccccc21 ... > 10 µM

----------
# Test system: NCI-H522 lung
# assay summary: NCI tumour cell line growth inhibition, 48 h
Catalogue of TGI values
reported metric: TGI

1) CCCCOC1OC(COC(=O)C(C)C)C(OC(=O)C(C)C)C(O)C1OC1OC(C)C(OC(=O)CCC)C(OC(=O)C(C)C)C1O (stereo unspecified) ... 39.6 µM
2) Cc1ccc(-n2nnnc2-c2cnc(N3CCOCC3)nc2-c2cccc(C(F)(F)F)c2)cc1 ... > 12.9 µM
3) CC(=O)/C=C/c1ccc(OCc2ccc(Cl)cc2)cc1 ... > 1000 µM
4) N/C1=C/C(=O)NC(=O)c2c(c3ccccc3oc2=O)C1 ... > 100 µM
5) Brc1cccc(C2ON=C(c3ccccc3)N2C23CC4CC(CC(C4)C2)C3)c1 (stereo unspecified) ... > 10 µM
6) CCCCOC(=O)C1CC[C@H]2[C@@H]3CCc4cc(OC(=O)c5cccc6c(=O)c7ccccc7[nH]c56)ccc4[C@H]3CC[C@]12C (stereo partly specified) ... 16.9 µM
7) OCCN(CCO)c1cccc(N(CCO)CCO)n1 ... > 100 µM
8) CCN1C(=NCCO)NS(=O)(=O)c2ccccc21 ... > 100 µM
9) CC(=O)OC1=CC2(OC(C)=O)CC(C)(C)C1C1C(=O)C=CC(=O)C12 (stereo unspecified) ... > 52.4 µM
10) O=C(O)[C@H](CCC[C@H]1C(=O)O[C@H](c2ccccc2)[C@H](c2ccccc2)N1C(=O)OCc1ccccc1)N[C@@H](c1ccccc1)[C@H](O)c1ccccc1 ... 38.6 µM
11) Clc1ccc(C[P+](c2ccccc2)(c2ccccc2)c2ccccc2)cc1Cl ... 10.3 µM
12) COc1ccccc1C(=O)NCC1CCCN2CCCCC12 (stereo unspecified) ... > 100 µM
13) O=Cc1ccc(-c2ccc(-c3nc4ccccc4s3)cc2)s1 ... > 100 µM
14) CCOC(=O)c1c(SC(=O)c2ccc(OC)cc2)n(-c2ccccc2)c(=S)n(-c2ccccc2)c1=O ... > 100 µM
15) O=C1N(Cc2ccccc2Cl)c2ccccc2C12NN=C(c1cccc(Cl)c1)S2 (stereo unspecified) ... 3.48 µM
16) O=C(O)/C=C/c1ccc2c(c1)CC1(Cc3ccccc3C1)C2 ... > 100 µM

----------
Catalogue of TGI values
# Test system: OVCAR-8 ovarian
# assay summary: NCI tumour cell line growth inhibition, 48 h
reported metric: TGI

1) COc1cc(OC)c2c(c1)OC(c1cccnc1)C(c1ccccc1)C2=O (stereo unspecified) ... > 100 µM
2) CN(CCCCCl)P(=O)(OCc1ccc([N+](=O)[O-])o1)OCC1OC(n2cnc([N+](=O)[O-])c2N)C(O)C1O (stereo unspecified) ... > 100 µM
3) Cn1cc(C2=C(Nc3ccccc3)C(=O)NC2=O)c2ccccc21 ... > 25 µM
4) N/C1=C/C(=O)NC(=O)c2c(c3ccccc3oc2=O)C1 ... > 100 µM
5) Brc1cccc(C2ON=C(c3ccccc3)N2C23CC4CC(CC(C4)C2)C3)c1 (stereo unspecified) ... > 10 µM
6) CCOC(=O)C1(C#N)CC1 ... > 100 µM

----------
# Test system: U251 CNS
# assay summary: NCI tumour cell line growth inhibition, 48 h
reported metric: TGI

1. CCc1nc(N)nc(N)c1-c1ccc(Cl)c(N=[N+]=[N-])c1 ... > 100 µM
2. O=C(O)c1c(Br)c(Br)c(Br)c(Br)c1C1c2ccc(O)cc2Oc2cc(O)ccc21 ... > 100 µM
3. COc1cc2c(/C=C3/C(=O)N(C)c4ccc(O)cc43)c(Cl)[nH]c2cc1C ... 17.6 µM
4. N#CC1=C(O)NC(O)=C(C#N)C1c1ccc(C2C(C#N)=C(O)NC(O)=C2C#N)cc1 ... > 100 µM
5. CC(=O)OCC1OC(n2c(S)c(C#N)c(-c3ccccc3)c(C#N)c2=O)C(OC(C)=O)C(OC(C)=O)C1OC(C)=O (stereo not drawn) ... > 100 µM
6. CC(=O)OC1=CC2(OC(C)=O)CC(C)(C)C1C1C(=O)C=CC(=O)C12 (stereo not drawn) ... > 100 µM
7. CCCCCCNCc1cc(C(C)(C)C)cc(CNCCCCCC)c1O ... 2.91 µM
8. CC1OC(OC2C(O[C@H]3CC[C@@]4(C)C(=CC[C@H]5[C@@H]6C[C@@H]7O[C@]8(CC[C@@H](C)CO8)[C@@H](C)[C@@H]7[C@@]6(C)CC[C@@H]54)C3)OC(CO)C(O)C2O)C(O)C(O)C1O (stereo partly drawn) ... 1.87 µM

----------
# Test system: MDA-N
# assay summary: NCI tumour cell line growth inhibition, 48 h
reported metric: TGI

1) COc1nc2ccc(COc3ccc(C(=O)O)cc3)cc2nc1OC ... > 100 µM
2) COC(=O)c1cc(OC)c(OC)c(OC)c1-c1cc2c(cc1C=O)OCO2 ... > 10 µM
3) O=C(O)/C=C/c1ccc2c(c1)CC1(Cc3ccccc3C1)C2 ... > 100 µM
4) O=[N+]([O-])c1cc2no[n+]([O-])c2cc1N1CCCCC1 ... 7.06 µM

----------
# System: A498 renal
# assay summary: NCI tumour cell line growth inhibition, 48 h
reported metric: TGI

1) Cc1ccc(S(=O)(=O)N/N=C/C(C)C)cc1 ... > 100 µM
2) O=C(NO)NCCCl ... > 100 µM
3) COC(=O)Nc1nc2ccc(S(=O)(=O)N3CCOCC3)cc2[nH]1 ... > 100 µM
4) CC(=O)c1ccc(NC(=O)C(=O)C(C#N)CC(C)(C)C=O)cc1 (stereo not drawn) ... > 100 µM
5) O=C(O)/C=C/c1ccc2c(c1)CC1(Cc3ccccc3C1)C2 ... > 100 µM
6) O=c1c(Cc2ccc(Cl)cc2)nnc2sc(-c3ccc(-c4ccc(Cl)cc4Cl)o3)nn12 ... > 100 µM
7) CC(C)C1=CC(=O)[C@@](C)(C2[C@H](O)C[C@@]3(C)[C@@H]4CC=C5[C@@H](CC[C@@H](OC6OCC(O)C(O)C6OC6OC(C)C(O)C(O)C6O)C5(C)C)[C@]4(C)C(=O)C[C@]23C)O1 (stereo partly drawn) ... > 100 µM
8) CCCCNc1ccc(Nc2ccccc2)cc1 ... > 100 µM
9) C/C(=C/CC[C@]1(CO)CC[C@]2(C)[C@H](CC[C@@H]3[C@@]4(C)CC[C@H](OC5OC(CO)C(O)C(O)C5OC5OC(CO)C(O)C(O)C5O)C(C)(C)[C@@H]4CC[C@]32C)[C@H]1O)CO (stereo partly drawn) ... > 100 µM
10) O=Cc1ccc(-c2ccc(-c3nc4ccccc4s3)cc2)s1 ... > 100 µM
11) Nc1nc(N)c2nc3c(nc2n1)CCCCCCCCCC3 ... > 100 µM
12) CC(=O)NC1=NC(=O)/C(=C/c2ccc(/C=C3/C(=O)N=C(NC(C)=O)N3C)cc2)N1C ... > 100 µM
13) CCn1c2ccccc2c2c(-c3ccccc3)cc3c(c21)C(=O)N(c1ccccc1)C3=O ... > 100 µM
14) O=C(Nc1ccc(S(=O)(=O)/N=c2\ncccn2C(=O)C(C(F)(F)F)C(F)(F)F)cc1)C(C(F)(F)F)C(F)(F)F ... > 100 µM
15) C(#CP(c1ccccc1)c1ccccc1)P(C#CP(c1ccccc1)c1ccccc1)c1ccccc1 ... > 100 µM
16) Cn1cc(S(=O)(=O)NC(=O)Nc2ccc(Cl)cc2)c(=O)c2ccc(F)cc21 ... > 100 µM
17) CC1(C)O[C@@H]2C[C@H]3[C@@H]4C[C@H](F)C5=CC(=O)C=C[C@]5(C)[C@@]4(F)[C@@H](O)C[C@]3(C)[C@]2(C(=O)CO)O1 ... > 100 µM
18) O=C1CCCCC12CCC/C2=N\O (stereo not drawn) ... > 100 µM
